- System: S. aureus BAA 977 iErmA
// log10(MIC) lookup, one value per entry
Please note: log10 values; quantity MIC; unit µg/mL.

# Compound, Study target, log10(MIC)
records = [
    ("CSC1O[C@H]([C@H](NC(=O)[C@H]2NC[C@@H]3C[C@@H](c4ccccc4F)CCO[C@H]32)[C@H](C)Cl)C(O)[C@@H](O)[C@H]1O (some centres unmarked) [FSA-511100]", "S. aureus BAA 977 iErmA", 0.60),
    ("CSC1O[C@H]([C@H](NC(=O)[C@H]2NC[C@@H]3CC(NC4CC4)CCO[C@H]32)[C@H](C)Cl)C(O)[C@@H](O)[C@H]1O (some centres unmarked) [FSA-510011]", "S. aureus BAA 977 iErmA", 1.51),
    ("CSC1O[C@H]([C@H](NC(=O)[C@H]2NC[C@H]3CC=CCO[C@H]32)[C@H](C)Cl)C(O)[C@@H](O)[C@H]1O (some centres unmarked) [FSA-507051]", "S. aureus BAA 977 iErmA", 1.20),
    ("CSC1O[C@H]([C@H](NC(=O)[C@H]2NC[C@@H]3CC(c4ccc(-c5ccccc5)cc4)=CCO[C@H]32)[C@H](C)Cl)C(O)[C@@H](O)[C@H]1O (some centres unmarked) [FSA-510001]", "S. aureus BAA 977 iErmA", 0.30),
    ("CSC1O[C@H]([C@H](NC(=O)[C@H]2NC[C@@H]3C[C@H](c4ccc(C#N)cc4)CCO[C@H]32)[C@H](C)Cl)C(O)[C@@H](O)[C@H]1O (some centres unmarked) [FSA-512081b]", "S. aureus BAA 977 iErmA", 0.00),
    ("CSC1O[C@H]([C@H](NC(=O)[C@H]2NC[C@@H]3C[C@@H](c4ccc(F)cc4F)CCO[C@H]32)[C@H](C)Cl)C(O)[C@@H](O)[C@H]1O (some centres unmarked) [FSA-511078]", "S. aureus BAA 977 iErmA", -0.60),
    ("CSC1O[C@H]([C@H](NC(=O)[C@H]2NC[C@@H]3C=C(c4ccccc4F)CCO[C@@H]23)[C@H](C)Cl)C(O)[C@@H](O)[C@H]1O (some centres unmarked) [FSA-511073]", "S. aureus BAA 977 iErmA", 0.00),
    ("COc1ccc([C@@H]2CCO[C@@H]3[C@H](CN[C@@H]3C(=O)N[C@H]([C@H](C)Cl)[C@H]3OC(SC)[C@H](O)[C@H](O)C3O)C2)cc1 (some centres unmarked) [FSA-512080c]", "S. aureus BAA 977 iErmA", -0.30),
    ("CSC1O[C@H]([C@H](NC(=O)[C@@H]2[C@@H]3OCC=CC[C@H]3CN2C)[C@H](C)Sc2ccc(-c3cncnc3)cc2)C(O)[C@@H](O)[C@H]1O (some centres unmarked) [FSA-212034]", "S. aureus BAA 977 iErmA", -0.60),
    ("C=CCOC(=O)N1CCO[C@@H]2[C@H](CN[C@@H]2C(=O)N[C@H]([C@H](C)Cl)[C@H]2OC(SC)[C@H](O)[C@H](O)C2O)C1 (some centres unmarked) [FSA-503073]", "S. aureus BAA 977 iErmA", 1.81),
]

Entry CSC1O[C@H]([C@H](NC(=O)[C@H]2NC[C@@H]3CN(Cc4ccc(N)nc4)CCO[C@H]32)[C@H](C)Cl)C(O)[C@@H](O)[C@H]1O (some centres unmarked) [FSA-504050] , system S. aureus BAA 977 iErmA: what log10(MIC) was measured?
1.81
